# Test system: NCI-H226 lung
# assay-remarks: NCI tumour cell line growth inhibition, 48 h
Where a SMILES comes first, the peptide text is derived from it. The star is where a group is joined. Boc = CC(C)(C)OC(=O)*
Consider the following molecules; for each one, report its TGI.

Use these answered entries as a reference point.
[
  {
    "molecule": "Clc1ccc(CSc2ncnc3c2ncn3C2CCCCO2)cc1 (stereo unspecified)",
    "TGI": "76.7 µM"
  },
  {
    "molecule": "O=c1[nH]c(=O)n(C2CC(O)C(CO)O2)c2nc3cc4ccccc4cc3nc12 (stereo unspecified)",
    "TGI": "> 100 µM"
  },
  {
    "molecule": "O=C(c1cc(Cl)ccc1Cl)N1CCN(c2cccc(Cl)c2)CC1",
    "TGI": "42.6 µM"
  }
]

Provide TGI for all items below, preserving their order.
1. CCc1cccc(C)c1NC(=O)C1=C(C)NC(C)=C(C(=O)Nc2c(C)cccc2CC)C1c1ccc([N+](=O)[O-])cc1
2. Nc1ccc2c(c1)C(=O)N(OS(=O)(=O)c1ccccc1)C2=O
3. Cc1ccc([N+](=O)[O-])cc1S(=O)(=O)Nc1ccc(C(=O)/C=C/c2cccs2)cc1
4. COc1cc(S(=O)(=O)Nc2nc(-c3ccc(N=Cc4cccs4)cc3)cs2)ccc1Cl
5. COc1ccc(S(=O)(=O)N/N=C\c2cc([N+](=O)[O-])cc(I)c2O)c(OC)c1OC
6. CC(C)(C)OC(=O)NC(Cc1ccc(O)cc1)C(=O)NC(CCCCN)C(=O)O (stereo not drawn) (Boc-Tyr-Lys-OH; configuration not given here)
7. C=C1C(O)C23CCC4C(C(=O)O)(C(=O)O)CC(OC5OC(CO)C(O)C(OC(=O)CCc6ccccc6)C5NC(=O)CC(C)C)CC4(C)C2CCC1(O)C3 (stereo unspecified)
8. CC(=O)[CH-]C(C)=O.CC(=O)[CH-]C(C)=O.CC(=O)[CH-]C(C)=O.[In+3]

### Response
> 100 µM
> 100 µM
71.5 µM
> 100 µM
41.9 µM
> 100 µM
> 100 µM
> 100 µM

---

# System: MDA-MB-435
// one of t for active, f for inactive, no free text

[
  {
    "structure-smiles": "CN1CCc2c(c3ccccc3c3ccccc23)C1",
    "assigned-class": "f"
  },
  {
    "structure-smiles": "O=C1Nc2cc(Cl)ccc2/C1=C\\c1c(-c2ccc(F)cc2)nc2ccccn12",
    "assigned-class": "t"
  }
]

Now for another entry.
### Prompt Test call, this molecule: O=C(Nc1cccc(-n2cc(-c3ccncc3)c(-c3ccc(Cl)c(O)c3)n2)c1)Nc1ccc(Cl)c(C(F)(F)F)c1
### Response f

---

Exercise: state measured TGI for each of the compounds provided.
# System: IGROV1 ovarian
# assay-remarks: NCI tumour cell line growth inhibition, 48 h

[
  {
    "compound": "CC1=NCCc2cc3[nH]c4ccccc4c3cc21",
    "value-observed": "> 85.3 µM"
  }
]

Below are 2 compounds. Give each one its TGI.
1. Cc1cc(O)c(C(=O)O)c2c1C(=O)c1c(O)c(OCC(O)C(O)C(O)C(O)CO)c(O)c(O)c1C2=O (stereo not drawn) (tested in a mixture with another compound)
2. Cc1ccc([N+](=O)[O-])cc1S(=O)(=O)Nc1ccc(C(=O)/C=C/c2cccs2)cc1

### Response
1: > 100 µM; 2: > 100 µM

Hello, the source for this data is PubChem BioAssay (NCI), in case you need it.
